Values compiled from patent US8022102B2.

Molecular target: human cloned 5-HT2C receptor (Homo sapiens, UniProt P28335)
Construct: expressed in transfected cells; host or cells: CHO cells
Sequence (P28335 33-458): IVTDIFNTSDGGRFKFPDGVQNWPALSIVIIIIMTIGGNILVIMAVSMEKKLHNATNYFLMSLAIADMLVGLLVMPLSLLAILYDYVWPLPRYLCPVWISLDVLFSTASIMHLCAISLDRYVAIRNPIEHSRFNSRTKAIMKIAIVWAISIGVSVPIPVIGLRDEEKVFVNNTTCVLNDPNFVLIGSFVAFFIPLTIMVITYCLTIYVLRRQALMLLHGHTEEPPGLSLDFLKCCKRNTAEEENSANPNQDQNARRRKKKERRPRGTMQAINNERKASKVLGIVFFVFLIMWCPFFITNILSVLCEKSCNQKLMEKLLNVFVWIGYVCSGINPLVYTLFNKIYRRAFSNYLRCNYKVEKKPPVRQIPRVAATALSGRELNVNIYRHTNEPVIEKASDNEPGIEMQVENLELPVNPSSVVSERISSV
Assay: In vitro binding affinity for 5-HT2C receptor (radioligand binding)
Conditions: human cloned 5-HT2C receptor, radioligand binding; read-out: h-5HT2C (converted)
Rule for this label: yes (1) means IC50 is less than 10 nM; no (0) means IC50 is at least 10 nM.

// known answers, use as guide
{"columns": ["MOLECULE", "LABEL_VALUE"],
 "data": [
  ["CN(CCO)CC1CC2=C(O1)c1cc(F)ccc1Cc1ccccc12 (stereo not drawn)", "yes (1)"],
  ["CN(CCO)CC1CC2=C(O1)c1cc(F)ccc1Oc1ccccc12 (stereo not drawn)", "no (0)"],
  ["CNCC1CC2=C(O1)c1ccccc1C(C)c1ccccc12 (stereo not drawn) [Compound 7]", "no (0)"],
  ["CC(C)OC(=O)N1CCN(CC2CC3=C(O2)c2cc(F)ccc2Cc2ccccc23)CC1 (stereo not drawn)", "no (0)"],
  ["CNCC1CC2=C(O1)c1ccccc1Cc1cccc(F)c12 (stereo not drawn)", "yes (1)"],
  ["CN(C)CC1CC2=C(O1)c1cc(Br)ccc1Cc1ccccc12 (stereo not drawn)", "yes (1)"]
]}

**Query** Record Fc1ccc2c(c1)C1=C(CC(CN3CCOCC3)O1)c1ccccc1C2 (stereo not drawn) : is its IC50 strictly below 10 nM?
**Result** no (0)

**Query** Please indicate whether the reported IC50 of CN(C)C(=O)N1CCN(CC2CC3=C(O2)c2cc(F)ccc2Cc2ccccc23)CC1 (stereo not drawn) is strictly below 10 nM.
**Result** no (0)

**Query** Quick check: does `CN(CC(=O)c1ccccc1)C[C@H]1CC2=C(O1)c1cc(F)ccc1Cc1ccccc12` have IC50 under 10 nM?
**Result** yes (1)

**Query** State whether 10 nM exceeds IC50 recorded for O=C(c1ccccc1)N1CCN(CC2CC3=C(O2)c2cc(F)ccc2Oc2ccccc23)CC1 (stereo not drawn) .
**Result** no (0)

**Query** Identify whether the molecule O=C(Nc1ccccc1)N1CCN(CC2CC3=C(O2)c2cc(F)ccc2Oc2ccccc23)CC1 (stereo not drawn) records IC50 below 10 nM.
**Result** no (0)

**Query** Is the reported IC50 for `CN(CC(=O)O)C[C@H]1CC2=C(O1)c1cc(F)ccc1Cc1ccccc12` strictly below 10 nM?
**Result** yes (1)

**Query** Hello, I'm reviewing records and need to know if IC50 of `CN(C/C=C/C(=O)O)C[C@H]1CC2=C(O1)c1cc(F)ccc1Cc1ccccc12` is below 10 nM. Could you check?
**Result** no (0)

**Query** Decide: IC50 of CN(C)CCC1CC2=C(O1)c1cc(F)ccc1Cc1ccccc12 (stereo not drawn) strictly below 10 nM?
**Result** yes (1)

**Query** Hello, is IC50 of the following molecule strictly smaller than 10 nM? CC(=O)N1CCN(CC2CC3=C(O2)c2cc(F)ccc2Oc2ccccc23)CC1 (stereo not drawn)
**Result** no (0)

**Query** Hi there! Is IC50 for O=C(C1CC1)N1CCN(CC2CC3=C(O2)c2cc(F)ccc2Oc2ccccc23)CC1 (stereo not drawn) below 10 nM, do you know?
**Result** no (0)

**Query** Confirm or reject: IC50 of CCOC(=O)CNC(=O)N1CCN(CC2CC3=C(O2)c2cc(F)ccc2Oc2ccccc23)CC1 (stereo not drawn) lies strictly below 10 nM
**Result** no (0)
